assay: probe aCHRDL2 binding to arrayed compounds – biochemical, biotinylated probe, 635/667 nm fluorescence, primary screen (AID 1100); conditions: small-molecule microarray, higher = more signal

compound	composite z-score
O=C1OCC=C[C@H]2OC34C=CCN(CCN5CCOCC5)C(=O)[C@H]3N(CCCCCCO)C(=O)[C@@H]4[C@@H]12 (stereo not given in full)	0.251
OCCCc1cc[n+](Cc2cccc(OC(F)(F)F)c2)cc1	0.526
COCCOC(=O)N1C(=O)[C@@]2(c3cc(C#Cc4ccc(OC)cc4)ccc31)[C@H](c1ccc(OCCO)cc1)N1[C@H](c3ccccc3)[C@H](c3ccccc3)OC(=O)[C@H]1[C@@H]2C(=O)N1CCc2cc(OC)c(OC)cc2C1	-0.227
COCCn1c(C(=O)N2CCCC2)cc2c1C[C@H]1CN(C(=O)c3ccccc3)[C@@](Cc3ccc(OC)cc3)(C(=O)OC)[C@@H]21	1.44
CC1(C)C(=O)C(c2ccccc2)=C2CN3C(=O)N(CCc4ccccc4)C(=O)C3(Cc3ccccc3)C=C21 (stereo not given)	1.12
COc1c(C)cc(-c2cc3c(c(-c4ccccc4)n2)[Si](C(C)C)(C(C)C)O[C@H]3c2ccccc2)cc1C	-0.327
CCCCC(=O)N(Cc1ccccc1F)[C@@H]1CC(C(=O)NCCO)=C[C@H](Oc2c(I)cc(CO)cc2OC)[C@H]1O	-0.327
Cc1ccc(N2C(=O)c3ccccc3[C@@H](C(=O)NCC(C)C)[C@@H]2c2ccc(CO)cc2)nc1	0.544
C=CCNC(=O)[C@H]1[C@@H]2C(=O)O[C@@H](c3ccccc3)[C@@H](c3ccccc3)N2[C@@H](c2ccc(OCCO)cc2)[C@]12C(=O)N(C(=O)OCCOC)c1ccc(C#CC3(O)CCCCCC3)cc12	0.33
C[C@]1(C(=O)NCC(F)(F)F)c2ccccc2C(=O)N(Cc2cc(F)cc(C(F)(F)F)c2)[C@H]1c1ccc(CO)cc1	0.572
O=C1NC(=O)C2C1C=CC(C(O)c1cccs1)N2Nc1ccccn1 (stereo not given)	0.601
CCOC1=C2C(c3ccc(C)cc3)N(S(=O)(=O)c3ccc(C)cc3)CC2n2c(=O)n(-c3ccccc3)c(=O)n2C1 (stereo not given)	0.5
COc1ccc([Si](C)(C)[C@@H]2[C@@H](CC(=O)N3Cc4ccccc4C[C@H]3CO)O[C@]3(C(=O)N(Cc4cccc(N5C(=O)COc6ccccc65)c4)c4ccccc43)[C@H]2C)cc1	-0.602
O[C@@H](Cc1ccccc1)[C@@H](/C=C/c1ccccc1)NCc1ccccc1Br	1.16
[N-]=[N+]=NCc1ccccc1C[C@]1(C(=O)NCC(O)CO)COC(c2ccc(OCCCO)cc2)=N1 (stereo not given in full)	1.5

###

test: small molecules captured by biotinylated probe aFSTL3 – biochemical, small-molecule microarray, fluorescence 635/667, stem cell growth factor project, primary screen (AID 1064); conditions: higher = more signal;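 also: measures binding of the biotinylated anti-FSTL3 antibody to printed compounds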
measurement_label: composite z-score

smiles	measurement_label	result
C=C(COC)/C(=C/C[C@H](OC(C)=O)c1ccccc1OCCO)c1cnc2ccccc2c1	composite z-score	-0.419
CCCC[C@@H]1C[C@H]1[C@@H](NC(=O)c1ccccc1)c1ccc(-c2ccccc2)cc1	composite z-score	-0.138
COCCOC(=O)N1C(=O)[C@@]2(c3cc(C#Cc4ccc(OC)cc4)ccc31)[C@H](c1ccc(OCCO)cc1)N1[C@H](c3ccccc3)[C@H](c3ccccc3)OC(=O)[C@H]1[C@@H]2C(=O)N1CCc2cc(OC)c(OC)cc2C1	composite z-score	-0.327
Cc1ccc(N2C(=O)c3ccccc3[C@@H](C(=O)NCC(C)C)[C@@H]2c2ccc(CO)cc2)nc1	composite z-score	0.341
C[N+](C)(C)CCCC[C@@H]1NC(=O)[C@H]2C[C@@H](C(=O)O)[C@@H](c3cccc(OCCO)c3)N2C1=O	composite z-score	2.11
C=C(C(=O)CC[C@@H](OC(=O)c1cccnc1)c1ccc(OCCO)cc1)C(C)C	composite z-score	-0.408
Cc1ccc(S[C@]2(C(=O)NCCCN(C)C)CC(=O)N(Cc3ccccc3)[C@@H]2c2ccc(CO)cc2)cc1	composite z-score	1.15

Every entry's value here was drawn from PubChem BioAssay.
